Measured attribute: melting point

If you can, please state the reported melting point value of `CNc1ccc(Oc2ccc(NC(=O)c3ccc(-c4ccccc4)cc3)cn2)c(OC)c1` .
161.4 to 161.8 °C

If you can, please state the reported melting point value of `CNc1ccc(Oc2ccc(NC(=O)c3ccc(F)c(F)c3F)cn2)c(OC)c1.Cl` .
207.1 to 209.8 °C

If you can, please state the reported melting point value of `CNc1ccc(Oc2ccc(NC(=O)c3ccc(Oc4ccccc4)cc3)cn2)c(OC)c1.Cl` .
202.2 to 202.3 °C

If you can, please state the reported melting point value of `CNc1ccc(Oc2ccc(NC(=O)c3ccc(C(F)(F)F)cc3F)cn2)c(OC)c1.Cl` .
197 to 198.1 °C

If you can, please state the reported melting point value of `CNc1ccc(Oc2ccc(NC(=O)c3ccc(C(F)(F)F)cc3)cn2)c(OC)c1.Cl` .
217.6 to 218.2 °C

If you can, please state the reported melting point value of `CNc1ccc(Oc2ccc(NC(=O)c3ccc(F)c(F)c3F)cn2)c(C)c1.Cl` .
222.9 to 225.4 °C (dec.)

If you can, please state the reported melting point value of `CNc1ccc(Oc2ccc(NC(=O)c3ccc(-c4ccccc4)cc3)cn2)c(F)c1` .
190 to 190.5 °C (dec.)

Recorded values, source patent US8946437B2.
